system: Curvularia lunata; assay: Antifungal activity against Curvularia lunata; format: functional
Give MFC for every item shown.
A number alone suffices; assume µg/mL.

Fill in the blank: the reported MFC of C[C@@H]1[C@H](O)[C@@H](C)/C=C/C=C/C=C/C=C/C=C/C=C/C=C/[C@H](O[C@@H]2O[C@H](C)[C@@H](O)[C@H](N)[C@@H]2O)C[C@@H]2O[C@](O)(C[C@@H](O)C[C@@H](O)[C@H](O)CC[C@@H](O)C[C@@H](O)CC(=O)O[C@H]1C)C[C@H](O)[C@H]2C(=O)O [AMPHOTERICIN B] is ____.
1

Fill in the blank: the reported MFC of CC[C@@H]([C@H](C)O)n1ncn(-c2ccc(N3CCN(c4ccc(OC[C@@H]5CO[C@@](Cn6cncn6)(c6ccc(F)cc6F)C5)cc4)CC3)cc2)c1=O [POSACONAZOLE] is ____.
0.5

Fill in the blank: the reported MFC of CCC(C)n1ncn(-c2ccc(N3CCN(c4ccc(OCC5COC(Cn6cncn6)(c6ccc(Cl)cc6Cl)O5)cc4)CC3)cc2)c1=O (stereo not given) [ITRACONAZOLE] is ____.
0.5

----------
system: Cunninghamella; experiment: Antifungal activity against Cunninghamella species; assay type: functional
measurement kind: MFC (µg/mL)
A number alone suffices; assume µg/mL.

Form field - read-out: MFC; system: Cunninghamella; submitted item: CC[C@@H]([C@H](C)O)n1ncn(-c2ccc(N3CCN(c4ccc(OC[C@@H]5CO[C@@](Cn6cncn6)(c6ccc(F)cc6F)C5)cc4)CC3)cc2)c1=O
2

Form field - read-out: MFC; system: Cunninghamella; submitted item: CCC(C)n1ncn(-c2ccc(N3CCN(c4ccc(OCC5COC(Cn6cncn6)(c6ccc(Cl)cc6Cl)O5)cc4)CC3)cc2)c1=O (stereo not given)
4

----------
tested on: Scedosporium apiospermum; experiment: Antifungal activity against Scedosporium apiospermum; format: functional
measurement kind: MFC

Fill in the blank: the reported MFC of C[C@@H]1[C@H](O)[C@@H](C)/C=C/C=C/C=C/C=C/C=C/C=C/C=C/[C@H](O[C@@H]2O[C@H](C)[C@@H](O)[C@H](N)[C@@H]2O)C[C@@H]2O[C@](O)(C[C@@H](O)C[C@@H](O)[C@H](O)CC[C@@H](O)C[C@@H](O)CC(=O)O[C@H]1C)C[C@H](O)[C@H]2C(=O)O [AMPHOTERICIN B] is ____.
> 8 µg/mL

Fill in the blank: the reported MFC of CC[C@H](C)C[C@H](C)CCCCCCCCC(=O)N[C@H]1C[C@@H](O)[C@@H](NCCN)NC(=O)[C@@H]2[C@@H](O)CCN2C(=O)[C@H]([C@H](O)CCN)NC(=O)[C@H]([C@H](O)[C@@H](O)c2ccc(O)cc2)NC(=O)[C@@H]2C[C@@H](O)CN2C(=O)[C@H]([C@@H](C)O)NC1=O [CASPOFUNGIN] is ____.
> 8 µg/mL

Fill in the blank: the reported MFC of CC[C@@H]([C@H](C)O)n1ncn(-c2ccc(N3CCN(c4ccc(OC[C@@H]5CO[C@@](Cn6cncn6)(c6ccc(F)cc6F)C5)cc4)CC3)cc2)c1=O [POSACONAZOLE] is ____.
1 µg/mL

Fill in the blank: the reported MFC of CCC(C)n1ncn(-c2ccc(N3CCN(c4ccc(OCC5COC(Cn6cncn6)(c6ccc(Cl)cc6Cl)O5)cc4)CC3)cc2)c1=O (stereo not given) [ITRACONAZOLE] is ____.
> 4 µg/mL

Fill in the blank: the reported MFC of C[C@@H](c1ncncc1F)[C@](O)(Cn1cncn1)c1ccc(F)cc1F [VORICONAZOLE] is ____.
> 8 µg/mL
